assay: Luminescence Cell-Based Dose Response HTS to Identify Activators of Luciferase Translation or Activity in H4 […] Cells. [Related pubchem assays: 1829 (Project Summary), 1814 (Primary HTS)]; type: functional
Activity calls are given as the source filed them.
Could you please report measured EC50 for the items listed next?

- Substance smiles: "O=C(Nc1ccc(F)cc1)/C(Cl)=C/c1ccccc1"
  Value reported: "5090 nM (active)"
- Substance smiles: "COC(=O)CSc1nc2cc3c(cc2cc1C#N)OCO3"
  Value reported: "176 nM (active)"
- Substance smiles: "CC(=O)Cn1ncc(N2CCCCC2)c(Cl)c1=O"
  Value reported: "11500 nM (active)"

Kindly consider the entry below.
For reference, reported EC50 for Cc1nc(-c2ccccc2)sc1-c1ccnn1C stands at 367 nM (active)

###

system: H4; assay: Luminescence Cell-Based Dose Response HTS to Identify Activators of 5'UTR Stem-Loop Driven Prion Protein mRNA Translation in H4 Neuroglioblastoma Cells. [Related pubchem assays: 1829 (Project Summary), 1814 (Primary HTS)]; format: functional; details: Homo sapiens
The source made the active and inactive calls.
Could you please report measured EC50 for the items listed next?

# count of solved cases: 2
- Molecule: "O=C(COC(=O)CC1CCCC1)Nc1cc2c(cc1Cl)C(=O)c1ccccc1C2=O"
  Tested system: "H4"
  EC50: "21.7 µM (active)"
- Molecule: "CCc1ccc(N2NC(=O)/C(=C/C=C/c3ccco3)C2=O)cc1"
  Tested system: "H4"
  EC50: "14.3 µM (active)"

Required: EC50, one value per molecule below.
1. Cc1ccc(NC(=O)ON=C2CCCC2)cc1
2. CN1CCN(C2=C(Cl)C(=O)N(C3CCCCC3)C2=O)CC1
3. Cc1nc2cc(NC(=O)N3CCC(c4ccccc4)C3)ccc2n1C (stereo unspecified)

["> 120 µM (not active)", "> 120 µM (not active)", "27.4 µM (active)"]

For reference, reported EC50 for COc1ccc(OCc2cc(C(=O)N(C)Cc3cc(C4CC4)[nH]n3)no2)c(Cl)c1 stands at 37.8 µM (active)

###

target: Corticotropin-releasing factor receptor 2/Corticotropin-releasing factor-binding protein (Homo sapiens, UniProt P24387+Q13324); assay: activators of CRF receptor 2 with binding protein – uHTS hits, confirmation (AID 602473); type: functional; conditions: read-out: EC50_Mean
Sequence (Q13324 whole entry): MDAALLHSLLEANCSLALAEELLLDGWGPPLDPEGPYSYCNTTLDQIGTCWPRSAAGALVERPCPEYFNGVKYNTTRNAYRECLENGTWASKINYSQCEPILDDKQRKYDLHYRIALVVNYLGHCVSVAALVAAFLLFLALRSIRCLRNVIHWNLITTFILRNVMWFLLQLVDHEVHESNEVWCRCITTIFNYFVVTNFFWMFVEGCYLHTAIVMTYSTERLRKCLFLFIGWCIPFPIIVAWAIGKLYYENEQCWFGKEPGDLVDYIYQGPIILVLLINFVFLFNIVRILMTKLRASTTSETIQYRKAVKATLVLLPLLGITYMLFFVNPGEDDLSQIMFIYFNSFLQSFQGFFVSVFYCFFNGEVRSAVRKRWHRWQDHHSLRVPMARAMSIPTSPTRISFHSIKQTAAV
Sequence (P24387 whole entry): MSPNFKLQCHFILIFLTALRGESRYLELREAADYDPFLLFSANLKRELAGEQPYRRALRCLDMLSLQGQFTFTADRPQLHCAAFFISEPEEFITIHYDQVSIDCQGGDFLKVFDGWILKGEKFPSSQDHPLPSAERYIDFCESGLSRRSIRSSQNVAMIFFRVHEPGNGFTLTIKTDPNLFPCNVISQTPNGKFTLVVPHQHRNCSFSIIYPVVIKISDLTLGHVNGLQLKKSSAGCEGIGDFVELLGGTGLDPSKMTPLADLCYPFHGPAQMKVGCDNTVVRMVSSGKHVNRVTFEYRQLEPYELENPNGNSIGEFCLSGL
Active and inactive are the calls of the source.
Hi! Could you answer with just one of these? active, inactive

- Molecule: "Cc1ccc(NC(=N)Nc2nc(C)cc(C)n2)cc1"
  Qualitative label: "active"

Field: outcome | Entry: Cc1ccccc1COc1ccc(C(=O)C2=C(O)C(=O)N(CCCn3ccnc3)C2c2ccco2)cc1 (stereo unspecified) inactive

Field: outcome | Entry: CCCC(=O)N1CCc2cc(-c3nc(N)sc3C)ccc21 inactive

###

Could you please report measured AC50 for the items listed next?
biological target: Microphthalmia-associated transcription factor (Homo sapiens); assay: TRPM1 promoter luciferase signal decrease, dose response, MITF inhibitor project, cell-based, SK-MEL-5, cherry-picked, set 3 (AID 493073); type: functional
Sequence (O75030 whole entry): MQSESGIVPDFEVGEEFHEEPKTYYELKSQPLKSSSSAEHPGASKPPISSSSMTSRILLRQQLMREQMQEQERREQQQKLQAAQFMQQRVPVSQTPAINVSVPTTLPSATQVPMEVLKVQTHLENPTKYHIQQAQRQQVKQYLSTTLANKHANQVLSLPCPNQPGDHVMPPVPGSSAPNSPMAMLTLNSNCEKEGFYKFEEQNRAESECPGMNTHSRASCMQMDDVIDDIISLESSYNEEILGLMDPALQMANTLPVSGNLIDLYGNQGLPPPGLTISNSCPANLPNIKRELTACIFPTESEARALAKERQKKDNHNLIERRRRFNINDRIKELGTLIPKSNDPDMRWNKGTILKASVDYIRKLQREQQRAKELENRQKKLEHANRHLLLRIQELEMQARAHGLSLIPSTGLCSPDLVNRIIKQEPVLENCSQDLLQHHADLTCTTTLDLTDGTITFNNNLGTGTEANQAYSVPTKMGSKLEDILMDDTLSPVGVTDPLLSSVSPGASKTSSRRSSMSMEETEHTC
Calls of active or inactive are those of the source.

- Compound: "CCc1ccc(NC2=CC(=O)C(=O)c3ccccc32)cc1"
  AC50: "3.59 µM (active)"
- Compound: "CC1CCC(C(C)C)C(OC(=O)Cn2c(-c3ccccc3)[n+](C)c3ccccc32)C1 (stereo unspecified)"
  AC50: "2.37 µM (active)"
- Compound: "COc1cc([N+](=O)[O-])cc(/C=N/NC(=O)c2ccc(NC(=O)c3ccc(C)cc3)cc2)c1O"
  AC50: "1.55 µM (active)"
- Compound: "CCN(CC)CCC(=O)N1C/C(=C/c2ccccc2)C(=O)/C(=C\\c2ccccc2)C1"
  AC50: "4.72 µM (active)"
- Compound: "COc1ccc(NC(C)C(=O)N/N=C/c2ccc([N+](=O)[O-])s2)cc1 (stereo unspecified)"
  AC50: "15.8 µM (active)"

Kindly consider the entry below.
For reference, reported AC50 for Cn1cccc1-c1cc(C(=O)N/N=C/c2cc(Br)ccc2O)[nH]n1 stands at 5.25 µM (active)

###

biological target: Corticotropin-releasing factor receptor 2/Corticotropin-releasing factor-binding protein (Homo sapiens, UniProt P24387+Q13324); assay: activators of CRF receptor 2 with binding protein – uHTS hits, confirmation (AID 602473); type: functional; settings: read-out: EC50_Mean
The source made the active and inactive calls.
Hi! Could you answer with just one of these? active, inactive

Solved cases below.
- Compound: "CC1CCN(S(=O)(=O)c2nnc(NC(=O)c3cccc(Cl)c3)s2)CC1"
  Qualitative label: "inactive"
- Compound: "COc1ccc2c(c1)-c1nc(/N=C/c3ccc(O)cc3)sc1CC2"
  Qualitative label: "inactive"
- Compound: "Cc1ccc(-n2nnnc2SCc2nnc(-c3ccccc3Br)o2)cc1"
  Qualitative label: "inactive"

Field: outcome | Entry: Cc1ccc(Cn2nnc(C(=O)Nc3cccc(C)c3C)c2N)cc1 active

Field: outcome | Entry: COc1ccc(/C=C2/CCC(CN3CCOCC3)C2=O)cc1 (centres undefined) inactive

Field: outcome | Entry: CC(NC(=O)COC(=O)C12CC3CC(CC(Br)(C3)C1)C2)c1ccccc1 (centres undefined) inactive

###

molecular target: Phospholipase A2 (Homo sapiens, UniProt P04054); assay type: functional;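 further: confirmatory dose-response counterscreen on phospholipase A2, testing hits that came from an ultra-high-throughput screen for ATG4B inhibitors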
Sequence (P04054 whole entry): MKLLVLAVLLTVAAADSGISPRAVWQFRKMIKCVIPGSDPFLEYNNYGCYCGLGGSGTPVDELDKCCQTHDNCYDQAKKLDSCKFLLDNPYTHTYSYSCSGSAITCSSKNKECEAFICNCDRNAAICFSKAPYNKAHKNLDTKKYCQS
Active and inactive are the calls of the source.
Could you please report measured IC50 for the items listed next?

# count of solved cases: 2
- Substance smiles: "CC(/C=C1\\SC(=S)N(CCCC(=O)Nc2ccc(C(=O)O)cc2)C1=O)=C\\c1ccccc1"
  Value reported: "5.33 µM (active)"
- Substance smiles: "CCCc1cc(=O)[nH]c(SCc2cc(Cl)ccc2OC(F)F)n1"
  Value reported: "9.01 µM (active)"

Required: IC50, one value per molecule below.
1. CCOC(=O)c1sc(-c2ccccc2)cc1NC(=O)Nc1ccccc1
2. O=C(O)c1cc2c(cc1NC(=O)c1ccccc1OC(F)F)OCCCO2

9.28 µM (active)
6.69 µM (active)

###

biological target: Bcl-2-related protein A1 (Mus musculus, UniProt Q07440); type: functional;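 further: confirmatory dose–response counterscreen on Bfl-1, used to check hits from a UBC13 polyubiquitin inhibitor campaign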
Sequence (Q07440 whole entry): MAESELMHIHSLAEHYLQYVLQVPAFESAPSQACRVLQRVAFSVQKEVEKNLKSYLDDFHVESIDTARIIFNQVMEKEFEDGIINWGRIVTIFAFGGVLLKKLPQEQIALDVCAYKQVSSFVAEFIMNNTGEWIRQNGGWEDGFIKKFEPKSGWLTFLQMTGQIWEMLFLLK
Active and inactive are the calls of the source.
Hi! Could you answer with just one of these? class 1 for active, class 0 for inactive

Solved cases below.
- Molecule: "COc1ccnc2c1c(=O)n(Cc1ccc(Cl)cc1)c(=O)n2C"
  Qualitative label: "class 1"
- Molecule: "C#CCOCCOCCOCCNc1nc(N2CCN(C(=O)C([C@@H](C)O)n3cc([C@@H](N)CCCCN)nn3)CC2)nc(N2CCN(C(=O)[C@H](CCCCN)n3cc(CN)nn3)CC2)n1 (stereo not given in full)"
  Qualitative label: "class 0"

Field: outcome | Entry: CCOC(=O)c1cccc(Nc2nc(-c3cccnc3)nc3ccccc23)c1 class 0

Field: outcome | Entry: COc1cc(/C=N/NC(=O)CSCc2ccc([N+](=O)[O-])cc2)cc(OC)c1OC class 0

Field: outcome | Entry: C#CCOCCOCCOCCNc1nc(N2CCOCC2)nc(N2CCN(C(=O)[C@H](CCCCN)n3cc(CN)nn3)CC2)n1 class 0

###

Test system Cytochrome P450 2C9 (Homo sapiens, UniProt P11712), AC50 listed for each of the compounds.

- Compound: "CN(C)c1ccc(/C=C2/C(=O)Nc3ccccc32)cc1"
  Value reported: "39.8 µM (inconclusive)"
- Compound: "O=C(CSc1nnnn1C1CCCC1)Nc1ccc(F)cc1"
  Value reported: "31.6 µM (inconclusive)"
- Compound: "Cc1cccc(C)c1NC(=O)C[S+]([O-])CC(=O)NCCCc1ccccc1 (stereo not drawn)"
  Value reported: "22.4 µM (inconclusive)"
- Compound: "CC(C)c1nnc(NC(=O)CCC(=O)N2CCN(c3ccccn3)CC2)s1"
  Value reported: "7.08 µM (inconclusive)"
- Compound: "c1ccc(CN2CCC3(CCc4ccccc43)CC2)cc1"
  Value reported: "39.8 µM (inconclusive)"

Required: AC50, one value per compound below.
1. COc1ccc(Oc2ncc3nc(-c4ccc(F)cc4)c(=O)n(Cc4cccs4)c3n2)cc1
2. COCCn1c(=O)c(-c2cccc(C#N)c2)nc2cnc(N3CCN(C)CC3)nc21
3. Cc1noc(COc2ccc(OCc3nc(C)no3)cc2)n1
4. Cc1ccc(C(OC(=O)c2ccco2)C(=O)NC2CCCCC2)cc1 (stereo not drawn)
5. CCS(=O)(=O)c1ccc2c(c1)N(S(C)(=O)=O)CC(C(=O)NCCOC)O2 (stereo not drawn)
6. Cc1ccc(C)c(C(=O)C2=C(O)C(=O)N(Cc3cccnc3)C2c2cccnc2)c1 (stereo not drawn)

3.16 µM (inconclusive)
3.98 µM (inconclusive)
39.8 µM (inconclusive)
39.8 µM (inconclusive)
35.5 µM (inconclusive)
3.16 µM (inconclusive)

Required: AC50, one value per compound below.
1. O=C(N/N=C/c1ccc2c(c1)OCO2)/C(=C/c1ccc2c(c1)OCO2)NC(=O)c1ccccc1
2. Cc1ccc(N2C(=O)/C(=C/N3CCN(C(=O)c4ccco4)CC3)C(=O)NC2=S)cc1C

["12.6 µM (inconclusive)", "20 µM (inconclusive)"]

FYI, the data here is from ChEMBL document CHEMBL1201862.
